System: P-gp (MDR1)
Assay Procedure: MDR1-MDCK permeability / P-gp efflux assay
Condition Info: MDCK-MDR1, pH 7.4
Below, each of the molecules is paired with its reported Papp at 60 min value.

Study these solved cases before continuing.
[
  {
    "Molecule": "C[C@]12C=CC(=O)C=C1CC[C@@H]1[C@@H]2C(=O)C[C@@]2(C)[C@H]1CC[C@]2(O)C(=O)CO",
    "Papp at 60 min": "< 3 ×10⁻⁶ cm/s"
  },
  {
    "Molecule": "C[C@@H]1C[C@H]2[C@@H]3CCC4=CC(=O)C=C[C@]4(C)C3=CC[C@]2(C)[C@@]1(O)C(=O)CO",
    "Papp at 60 min": "> 3 ×10⁻⁶ cm/s"
  },
  {
    "Molecule": "CC(=O)OCC(=O)[C@@]12N=C(C)O[C@@H]1C[C@H]1[C@@H]3CCC4=CC(=O)C=C[C@]4(C)[C@H]3[C@@H](O)C[C@@]12C",
    "Papp at 60 min": "< 3 ×10⁻⁶ cm/s"
  }
]

Next molecule, please.
Form field Papp at 60 min, entry CC(C)NCC(O)COc1cccc2ccccc12 (stereo not shown) : 19.7 to 21.4 ×10⁻⁶ cm/s
